Cited source: paper PMC3025325

A collection of compounds and their measured pEC50
Tested on: bloodstream forms of Trypanosoma brucei
experimental.details: Resazurin cell viability assay, EC50 determinations against T. brucei
Format: cell-based, T. b. brucei (strain 427)
stated.conditions: read-out: EC50 of standard drugs against T. brucei
Quick note: pEC50 values are minus log10 of concentrations in mol/L.

Completed entries (count: 3):
[
  {
    "compound": "NCCCC(N)(C(=O)O)C(F)F (stereo not shown)",
    "measured.value": 4.66
  },
  {
    "compound": "CC1CS(=O)(=O)CCN1/N=C/c1ccc([N+](=O)[O-])o1 (stereo not shown)",
    "measured.value": 5.74
  },
  {
    "compound": "Nc1nc(N)nc(Nc2ccc([As]3SCC(CO)S3)cc2)n1 (stereo not shown)",
    "measured.value": 8.10
  }
]

Could you now look at the following compound, please?
stdin: Report pEC50 for N=C(N)c1ccc(OCCCCCOc2ccc(C(=N)N)cc2)cc1 [Pentamidine isethionate] please.
stdout: 8.10
